Tested on: Human betaherpesvirus 5
method.summary: In vitro antiviral activity against human cytomegalovirus by plaque method.
Assay type: functional, organism-based
setup.conditions: Human betaherpesvirus 5
pIC50: −log10 of the molar value.
Label not met if pIC50 falls below 6; label met in every other case.

Below, 6 compounds whose answers are already recorded.
>>> cat("C[C@H]1OC(n2cc(C(=N)S)c3c(N)ncnc32)[C@H](O)[C@@H]1O (stereo not given in full)")
"not met"
>>> cat("N#Cc1cn([C@H]2C[C@H](O)[C@@H](CO)O2)c2ncnc(N)c12")
"not met"
>>> cat("N#Cc1cn(C2OC(CO)CC2O)c2ncnc(N)c12 (stereo not given)")
"met"
>>> cat("NC(=S)c1cn([C@@H]2O[C@H](CO)[C@H](O)[C@H]2O)c2ncnc(N)c12")
"met"
>>> cat("N=C(S)c1cn([C@@H]2O[C@H](CO)[C@@H](O)[C@@H]2N)c2ncnc(N)c12")
"not met"
>>> cat("N#Cc1cn(C2C=CC(CO)O2)c2ncnc(N)c12 (stereo not given)")
"not met"

Dear colleague, could you confirm whether "NC(=S)c1cn([C@@H]2O[C@H](CO)[C@@H](O)[C@H]2O)c2ncnc(N)c12" has pIC50 at or above 6? met

Dear colleague, could you confirm whether N#Cc1cn(C2CCC(CO)O2)c2ncnc(N)c12 (stereo not given) has pIC50 at or above 6? not met

Dear colleague, could you confirm whether NC(=S)c1cn(C2CCC(CO)O2)c2ncnc(N)c12 (stereo not given) has pIC50 at or above 6? not met

###

Test system: KB
method.summary: In vitro inhibition of KB cell proliferation.
Type: functional, cell-based, Homo sapiens
setup.conditions: Homo sapiens, KB
Assignment: determine reported pIC50 for the given compounds.
One number for each entry, as −log10 of the molar value.

>>> quantitative_result("NC(=S)c1cn([C@@H]2O[C@H](CO)[C@@H](O)[C@H]2O)c2ncnc(N)c12")
7.52

Please examine the following record next.
Give measured pIC50 for "NC(=S)c1cn([C@@H]2O[C@H](CO)[C@@H](O)[C@@H]2O)c2ncnc(N)c12" (KB). 5.70
